Source listed as patent US20180208664A1.

tgt: T1, APG293 (human CD95L-T4) (human)
T1 chain: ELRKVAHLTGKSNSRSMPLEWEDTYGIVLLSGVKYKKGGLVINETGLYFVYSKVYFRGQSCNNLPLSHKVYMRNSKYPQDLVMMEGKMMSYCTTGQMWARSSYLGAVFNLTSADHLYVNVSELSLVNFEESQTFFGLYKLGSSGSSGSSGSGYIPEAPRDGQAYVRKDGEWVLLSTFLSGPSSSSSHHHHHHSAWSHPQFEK
assayText: cell-based or functional assay
testReadout: EC50, Assay 6: antagonism of CD95L-T4-induced apoptosis on Jurkat A3 cells (ng/mL)

>>> measured("scFv-minibody SEQ ID 51 (scFv) scFv: EVQLVESGGGLVQPGGSLRLSCAASGFSFSDHYWMSWVRQAPGKGLEWVSAIYTADSDSYYADSVKGRFTISKDSSKNTLYLQMNSLRAEDTAVYYCARNGAYAGGPYGDLWGQGTLVTVSGGGSGGGSGGGSGGGSDIQMTQSPSSLSASVGDRVTITCKASQSIRTSLVWYQQKPGKAPKLLIYKASDLPSGVPSRFSGSGSGTDFTLTISSLQPEDFATYYCQSYDFRDTINNGHSFGQGTKVEIKGSGSSGQPREPQVYTLPPSREEMTKNQVSLTCLVKGFYPSDIAVEWESQGSPENNYKTTPPVLDSDGSFFLYSKLTVDKSRWQQGNVFSCSVMHEALHNHYTQKSLSLSPGSSSSSSAWSHPQFEK")
1740
>>> measured("scFv-minibody SEQ ID 48 (scFv) scFv: QSLEESGGDLVKPGGTLTLTCTTSGFSFSDHYWMCWVRQAPGKGLEWIACIYTADSDSYYASWAKGRFTISKTSSTTVTLQMTSLTAADTATYFCARNGAYAGGPYGDLWGPGTLVTVSGGGSGGGSGGGSGGGSDIVMTQTPSSVEAAVGGTVTIKCQASQSIRTSLVWYQQKPGQPPKLLIYKASDLPSGVPSRFKGSGSGTQFTLTISDLESADAATYYCQSYDFRDTINNGHSFGGGTEVVVKGSGSSGQPREPQVYTLPPSREEMTKNQVSLTCLVKGFYPSDIAVEWESQGSPENNYKTTPPVLDSDGSFFLYSKLTVDKSRWQQGNVFSCSVMHEALHNHYTQKSLSLSPGSSSSSSAWSHPQFEK")
97.5
